Test: Antiproliferative activity against androgen-sensitive mouse SEM-107 cells
Assay type: functional, cell-based
endpoint-name: IC50 (nM)
Number only, in nM; omit the unit.

Inquiry: Which IC50 is reported for this compound? CC(C)(O)C(=O)Nc1ccc([N+](=O)[O-])c(C(F)(F)F)c1 [HYDROXYFLUTAMIDE]
Reply text: 84

----------
Tested on: SC-3
Assay: Antiproliferative activity against mouse SC-3 cells
Format: functional, cell-based
endpoint-name: IC50 (nM)
Numbers only here, please. The scale is nM.

Before answering, review these 2 worked examples.
Inquiry: # query: IC50 of entry `COc1cccc(C(=O)Nc2ccc(Oc3ccc(O)cc3)c(C)c2)c1`
Reply text: 750

Inquiry: Endpoint output: IC50 of `O=c1[nH]nc(Cc2c(Cl)cccc2Cl)c2ccccc12` . Value?
Reply text: 180

Next:
Inquiry: Given the compound `Cn1cc(N(Cc2ccccc2)c2ccc([N+](=O)[O-])cc2)cc1C(=O)N1CCCC1` , what is its reported IC50?
Reply text: 440

----------
Target: Androgen receptor (Homo sapiens, UniProt P10275, T878A)
Experiment: Antagonist activity at Androgen receptor T877A mutant (unknown origin) expressed in African green monkey COS-7 cells measured as gene transcription level
Type: cell-based
endpoint-name: pIC50
Interpret pIC50 as the negative base-10 log of the concentration measured in mol/L.

Inquiry: Recorded pIC50 of `Cc1c(C#N)c(-c2ccc(C#N)cc2)c(C)n1-c1cnc(Cl)c(CO)c1` , please.
Reply text: 6.96

----------
Target: Androgen receptor (Homo sapiens, UniProt P10275)
Sequence (P10275 whole entry): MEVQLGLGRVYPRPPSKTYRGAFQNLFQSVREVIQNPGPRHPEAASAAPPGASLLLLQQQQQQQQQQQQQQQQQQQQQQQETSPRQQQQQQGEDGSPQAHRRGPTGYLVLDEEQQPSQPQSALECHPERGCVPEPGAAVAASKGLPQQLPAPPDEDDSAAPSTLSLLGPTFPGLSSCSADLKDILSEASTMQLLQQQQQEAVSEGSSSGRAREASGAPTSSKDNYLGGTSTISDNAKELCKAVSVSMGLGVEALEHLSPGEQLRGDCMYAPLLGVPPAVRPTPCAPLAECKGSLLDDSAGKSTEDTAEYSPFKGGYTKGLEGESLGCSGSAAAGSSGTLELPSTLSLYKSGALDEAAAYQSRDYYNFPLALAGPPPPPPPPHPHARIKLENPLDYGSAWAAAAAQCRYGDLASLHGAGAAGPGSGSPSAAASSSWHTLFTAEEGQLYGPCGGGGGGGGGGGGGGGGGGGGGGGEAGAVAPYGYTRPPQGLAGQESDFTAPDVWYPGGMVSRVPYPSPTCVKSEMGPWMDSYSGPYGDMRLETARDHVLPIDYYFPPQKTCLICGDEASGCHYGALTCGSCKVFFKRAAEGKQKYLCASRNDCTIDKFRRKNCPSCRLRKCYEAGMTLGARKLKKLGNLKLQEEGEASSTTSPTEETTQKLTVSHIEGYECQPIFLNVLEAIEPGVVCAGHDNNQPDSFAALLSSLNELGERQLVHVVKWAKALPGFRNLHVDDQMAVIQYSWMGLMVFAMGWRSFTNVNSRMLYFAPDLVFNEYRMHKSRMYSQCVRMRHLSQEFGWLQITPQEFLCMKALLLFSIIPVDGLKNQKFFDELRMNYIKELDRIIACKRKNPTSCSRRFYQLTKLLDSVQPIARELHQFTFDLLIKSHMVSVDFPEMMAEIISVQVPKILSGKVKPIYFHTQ
Experiment: Antagonist activity at Androgen receptor (unknown origin) in African green monkey COS-1 cells
Format: cell-based
endpoint-name: pIC50
Note: pIC50 values are expressed as the negative base-10 logarithm of concentration in M.

Inquiry: For the compound `N#Cc1ccc(C2=NO[C@H]3CCCC[C@@H]23)cc1C(F)(F)F` , what pIC50 is on record?
Reply text: 7.56

----------
Biological target: Androgen receptor (Homo sapiens, UniProt P10275)
Assay: Agonist activity at human Androgen receptor expressed in African green monkey CV-1 cells measured by ARE-luciferase assay
Format: cell-based
endpoint-name: EC50 (nM)
Note: unit nM is implicit; provide only the numeric part.

Inquiry: Request the reported EC50 associated with `N#Cc1ccc(-c2ccc(O)cc2F)[nH]1`
Reply text: 0.34

----------
Biological target: Androgen receptor (Homo sapiens, UniProt P10275)
Type: cell-based, LNCaP C4-2
Description: Antagonist activity at Androgen receptor in human LNCaP C4-2 cells transfected with PSA6.1-luc and pRL-TK measured by luciferase gene reporter assay
endpoint-name: pEC50
Friendly reminder that pEC50 comes from taking -log10 of the concentration in mol/L.

Inquiry: Form field: reported pEC50 of `Cc1ccc(Cl)cc1N1CCN(C(=O)[C@@H]2C[C@@H]2c2ccc(F)cc2)CC1`
Reply text: 5.77

----------
Target: Androgen receptor (Homo sapiens)
Experiment: Displacement of [3H]DHT from Androgen receptor expressed in human MDA-MB-453 cells
Type: cell-based
# Ki per entry
Give the value, in units of nM, as a plain number.

# count of solved cases: 5
Inquiry: Would you mind telling me what Ki value was observed for `CC(C)N1C[C@@]2(C)O[C@](C)(C1)[C@H]1C(=O)N(c3ccc(C#N)c(C(F)(F)F)c3)C(=O)[C@H]12` ?
Reply text: 14

Inquiry: Form field: reported Ki of `CNC(=O)[C@]12C(=O)N(c3ccc(C#N)c(C(F)(F)F)c3)C(=O)[C@H]1[C@H]1C[C@H](F)[C@@H]2C1`
Reply text: 8

Inquiry: Param item = `CCS(=O)(=O)N[C@@H]1C[C@@]2(C)O[C@]1(C)[C@@H]1C(=O)N(c3ccc(C#N)c(C(F)(F)F)c3)C(=O)[C@@H]12` ; retrieve measured Ki.
Reply text: 1.7

Inquiry: Fill in: Ki of `N#Cc1ccc(N2C(=O)[C@H]3[C@@H]4C[C@@H](CN4C(=O)Oc4ccc(F)cc4)N3C2=O)cc1C(F)(F)F` is ___
Reply text: 18

Inquiry: Please report the recorded Ki for `C[C@@]12O[C@@](C)(C[C@H]1O)[C@@H]1C(=O)N(c3ccc(C#N)c(I)c3)C(=O)[C@@H]12` .
Reply text: 2.4

***
Inquiry: Please report the recorded Ki for `CCCCc1ccc(OC(=O)N2C[C@@H]3C[C@H]2[C@@H]2C(=O)N(c4ccc([N+](=O)[O-])c5ccccc45)C(=O)N32)cc1` .
Reply text: 73

----------
Biological target: Androgen receptor (Homo sapiens, UniProt P10275)
Assay: Binding affinity to Androgen receptor (unknown origin)
Conditions: read-out: IC50
endpoint-name: IC50 (nM)
Reply with just the number (in nM).

Record excerpt, results attached:
Inquiry: So what's the measured IC50 for this one? CC(O)(C[S+]([O-])c1ccc(Cl)c(Cl)c1)c1cc2cc(Cl)c(C(F)(F)F)cc2[nH]1 (centres undefined)
Reply text: 100

Inquiry: Fill in: IC50 of `C[C@](O)(CCOc1ccc(F)cc1)C(=O)N1CCc2c(C#N)cccc21` is ___
Reply text: 12.7

Inquiry: // returns reported IC50 for input N#CCC(O)(c1nc2cc(Cl)c(Cl)cc2[nH]1)C(F)(F)F (centres undefined)
Reply text: 2

Here's the next entry for you.
Inquiry: Sample CC(O)(COC(=O)c1ccccc1C(F)(F)F)c1cc2cc([N+](=O)[O-])c(C(F)(F)F)cc2[nH]1 (centres undefined) — what was its IC50?
Reply text: 140

----------
Parameter: pKi. Scope: all listed entries.
Biological target: Androgen receptor (Homo sapiens, UniProt P10275)
Test: Binding affinity to human Androgen receptor
# pKi: negative log10 of molar concentration; output just the value

Inquiry: # get_value(readout='pKi', item= `N#Cc1ccc(N2CCC[C@@H]2[C@@H](O)C(F)(F)F)cc1C(F)(F)F` )
Reply text: 9.00

Inquiry: Name the reported pKi value associated with the compound `CC(C)(C)OC(=O)c1cccc2oc(=O)c3c(ccc4[nH]c(=O)cc(C(F)(F)F)c43)c12`
Reply text: 8.06

Inquiry: Please give the measured pKi for this compound: `C[C@]12COC(=O)C[C@@H]1CC[C@@H]1[C@@H]2CC[C@@]2(C)[C@H]1CC[C@]2(C)O`
Reply text: 7.21

Inquiry: Can you look up the measured pKi of `C[C@@H]1CC[C@H]([C@@H](O)C(F)(F)F)N1c1ccc2[nH]c(=O)cc(C(F)(F)F)c2c1` for me?
Reply text: 8.19

----------
Target: Androgen receptor (Homo sapiens, UniProt P10275)
Sequence (P10275 whole entry): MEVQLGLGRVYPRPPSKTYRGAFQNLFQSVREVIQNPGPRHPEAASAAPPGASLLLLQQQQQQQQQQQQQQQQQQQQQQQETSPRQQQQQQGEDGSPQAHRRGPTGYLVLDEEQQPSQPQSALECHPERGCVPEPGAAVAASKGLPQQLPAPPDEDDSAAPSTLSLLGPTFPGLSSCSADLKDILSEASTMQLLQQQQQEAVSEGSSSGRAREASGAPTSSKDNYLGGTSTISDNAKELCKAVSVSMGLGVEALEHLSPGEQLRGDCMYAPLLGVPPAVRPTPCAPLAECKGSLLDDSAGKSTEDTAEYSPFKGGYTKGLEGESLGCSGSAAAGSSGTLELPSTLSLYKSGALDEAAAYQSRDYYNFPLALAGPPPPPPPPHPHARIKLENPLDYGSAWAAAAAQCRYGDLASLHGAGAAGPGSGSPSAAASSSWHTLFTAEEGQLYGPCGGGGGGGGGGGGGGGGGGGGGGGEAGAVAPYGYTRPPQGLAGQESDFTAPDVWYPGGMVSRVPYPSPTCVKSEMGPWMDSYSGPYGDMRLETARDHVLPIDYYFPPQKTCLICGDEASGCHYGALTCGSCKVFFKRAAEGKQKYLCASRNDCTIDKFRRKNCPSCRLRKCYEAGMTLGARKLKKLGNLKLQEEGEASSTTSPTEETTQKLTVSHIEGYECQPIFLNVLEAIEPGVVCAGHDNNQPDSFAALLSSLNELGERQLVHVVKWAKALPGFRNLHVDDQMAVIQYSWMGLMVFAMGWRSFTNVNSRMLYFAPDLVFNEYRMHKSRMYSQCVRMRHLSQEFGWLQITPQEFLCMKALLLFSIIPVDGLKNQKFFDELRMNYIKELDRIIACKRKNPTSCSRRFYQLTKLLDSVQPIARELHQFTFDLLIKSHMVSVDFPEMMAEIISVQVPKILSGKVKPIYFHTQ
Test: Agonist activity at Androgen receptor (unknown origin) measured by androgen response element luciferase assay
endpoint-name: EC50
Record the result as a number with its unit.

Inquiry: Would you mind telling me what EC50 value was observed for `C[C@](O)(CCOc1ccc(F)cc1)C(=O)N1CCc2c(C#N)cccc21` ?
Reply text: 2.5 nM
